Target: full‐length XC_2579 protein (RpfS) (Xanthomonas campestris pv. campestris, UniProt Q8PA41)
Sequence (Q8PA41 14-968): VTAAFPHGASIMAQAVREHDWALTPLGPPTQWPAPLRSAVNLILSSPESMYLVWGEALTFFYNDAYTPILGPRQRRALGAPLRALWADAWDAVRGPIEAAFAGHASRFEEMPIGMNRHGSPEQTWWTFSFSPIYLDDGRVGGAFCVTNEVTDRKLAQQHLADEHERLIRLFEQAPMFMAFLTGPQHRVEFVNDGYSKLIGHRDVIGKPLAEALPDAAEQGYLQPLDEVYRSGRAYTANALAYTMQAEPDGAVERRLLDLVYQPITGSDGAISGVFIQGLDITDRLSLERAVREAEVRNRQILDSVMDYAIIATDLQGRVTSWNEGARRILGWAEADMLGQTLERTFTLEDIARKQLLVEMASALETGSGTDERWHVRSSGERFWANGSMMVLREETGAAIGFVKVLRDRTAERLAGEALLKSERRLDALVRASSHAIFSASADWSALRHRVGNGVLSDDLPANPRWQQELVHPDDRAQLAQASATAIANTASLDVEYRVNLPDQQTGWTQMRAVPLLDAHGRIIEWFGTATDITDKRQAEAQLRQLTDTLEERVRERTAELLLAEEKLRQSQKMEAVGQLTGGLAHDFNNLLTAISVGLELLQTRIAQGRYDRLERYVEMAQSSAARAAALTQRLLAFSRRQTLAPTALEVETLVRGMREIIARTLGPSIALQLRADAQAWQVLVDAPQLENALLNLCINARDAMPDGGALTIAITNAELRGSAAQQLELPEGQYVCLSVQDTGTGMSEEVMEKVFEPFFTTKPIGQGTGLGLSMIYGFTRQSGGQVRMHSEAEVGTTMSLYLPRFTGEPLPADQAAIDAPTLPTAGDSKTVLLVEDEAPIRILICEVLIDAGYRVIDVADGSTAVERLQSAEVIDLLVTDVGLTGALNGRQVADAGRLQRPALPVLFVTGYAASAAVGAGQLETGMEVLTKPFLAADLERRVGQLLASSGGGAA
property: Kd

* CC(C)CCCCCCC/C=C\C(=O)O [DSF, cis‐11‐methyl‐2‐dodecenoic acid] | 1400 nM
